- MEASUREMENT TARGET: human SLC7A4 (Homo sapiens)
- Construct: C-terminal FLAG tag
- PROTOCOL NOTES: […] L-Leu uptake competition in HCT116 SLC7A5 KO cells overexpressing SLC7A4; also nanoDSF (~[…] °C) and proteoliposome uptake
- Type: cell-based
MEASURED ENDPOINT: pIC50
Worth noting: pIC50 values are minus log10 of concentrations stated in mol/L.

Query block: Supply pIC50 value. Item: `CC(C)C[C@H](N)C(=O)O`
Result block: 4.62

----------
- MEASUREMENT TARGET: human SLC7A4 triple mutant (Tri-M) (Homo sapiens, UniProt O43246, L336S/L394M/V332S)
- Construct: C-terminal FLAG tag
- Sequence (O43246 1-635 V332S/L336S/L394M): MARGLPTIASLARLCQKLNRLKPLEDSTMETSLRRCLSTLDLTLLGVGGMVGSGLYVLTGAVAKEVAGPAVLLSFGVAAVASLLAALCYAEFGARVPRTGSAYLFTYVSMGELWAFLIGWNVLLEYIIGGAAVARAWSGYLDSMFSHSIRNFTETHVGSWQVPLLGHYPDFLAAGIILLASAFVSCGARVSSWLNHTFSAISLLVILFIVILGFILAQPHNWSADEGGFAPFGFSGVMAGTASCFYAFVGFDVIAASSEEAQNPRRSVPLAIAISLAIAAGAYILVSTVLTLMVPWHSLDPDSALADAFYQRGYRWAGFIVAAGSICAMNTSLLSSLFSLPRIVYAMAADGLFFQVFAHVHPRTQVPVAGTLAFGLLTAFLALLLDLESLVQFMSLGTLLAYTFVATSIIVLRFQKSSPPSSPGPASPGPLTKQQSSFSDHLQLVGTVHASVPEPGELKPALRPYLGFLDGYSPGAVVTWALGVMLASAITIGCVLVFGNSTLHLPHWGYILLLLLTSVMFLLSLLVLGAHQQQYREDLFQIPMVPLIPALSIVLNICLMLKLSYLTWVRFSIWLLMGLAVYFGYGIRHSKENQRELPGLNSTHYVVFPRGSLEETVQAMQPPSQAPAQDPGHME
- PROTOCOL NOTES: competition of […] L-Leu uptake in HCT116 SLC7A5 KO cells
- Format: cell-based
MEASURED ENDPOINT: IC50 (µM)
Enter your answer as a number in µM; do not include the unit.

Query block: Supply IC50 value. Item: `N=C(N)NCCC[C@H](N)C(=O)O`
Result block: 48.6
